# ASSAYED_SYSTEM: Pol IV (E. coli DNA polymerase IV, DinB) (Escherichia coli, UniProt Q47155)
# Construct: full-length, untagged as far as told, pET11a plasmid pRM112 (T7 promoter) and mutant derivatives, purified from E. coli; 351 residues
# Sequence (Q47155 whole entry): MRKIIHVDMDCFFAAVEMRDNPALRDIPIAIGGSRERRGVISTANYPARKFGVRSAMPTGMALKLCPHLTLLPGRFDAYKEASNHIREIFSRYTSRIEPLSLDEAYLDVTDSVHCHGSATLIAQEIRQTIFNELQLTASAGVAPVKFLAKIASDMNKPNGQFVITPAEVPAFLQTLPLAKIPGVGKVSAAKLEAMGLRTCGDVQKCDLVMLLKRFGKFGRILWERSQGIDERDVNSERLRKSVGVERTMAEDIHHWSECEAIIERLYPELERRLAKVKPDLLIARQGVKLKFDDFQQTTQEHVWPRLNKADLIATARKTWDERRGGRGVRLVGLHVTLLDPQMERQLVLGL
# PROCEDURE_TEXT: pre-steady-state single-nucleotide primer extension, […] gel assay
# Assay type: biochemical
# APPLIED_CONDITIONS: apparent Kd for dNTP; kpol given as kcat; undamaged template 13/20G (opposite dG); 200 nM DNA, 400 nM polymerase, 10 mM MgCl2, pH 7.5, 25°C
pKd: −log10 of the molar value.
METRIC: pKd

Query: Given the entry `Nc1ccn([C@H]2C[C@H](O)[C@@H](COP(=O)(O)OP(=O)(O)OP(=O)(O)O)O2)c(=O)n1` , report its measured pKd.
Response: < 3.52

Hey, just so you know, these numbers are from paper PMC4564189.
